Attribution: paper PMC5706701

Please go through the items and note down their Z-score.
target: Human IP6K1 (Homo sapiens, UniProt Q92551); construct: GST (N, cleaved yes); made in house; host or cells: C43 E. coli, pGEX-6P-2; assay: IP6K1 high-throughput screen of the Sigma LOPAC (ADP-Glo Max, single point); format: biochemical; conditions: LOPAC single-point screen; Z-score relative to plate average and StDev;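 further: final compound concentration 10µM in 5% DMSO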
Sequence (Q92551 whole entry): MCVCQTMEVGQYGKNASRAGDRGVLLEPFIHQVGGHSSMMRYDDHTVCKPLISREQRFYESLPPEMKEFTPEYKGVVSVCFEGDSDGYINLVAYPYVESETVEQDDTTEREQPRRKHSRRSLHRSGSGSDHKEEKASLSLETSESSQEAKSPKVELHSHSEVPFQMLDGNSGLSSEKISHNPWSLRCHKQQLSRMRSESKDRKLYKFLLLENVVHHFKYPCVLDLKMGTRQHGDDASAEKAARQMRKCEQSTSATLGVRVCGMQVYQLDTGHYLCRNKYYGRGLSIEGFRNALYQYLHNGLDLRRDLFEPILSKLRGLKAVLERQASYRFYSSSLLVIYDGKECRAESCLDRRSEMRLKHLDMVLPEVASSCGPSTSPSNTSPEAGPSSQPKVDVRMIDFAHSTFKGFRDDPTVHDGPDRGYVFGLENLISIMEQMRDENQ

# COMPOUND, Z-score
rows = [
    ("N.N.N.N.N.N.N.N.N.N.N.N.N.N.[Cl-].[Cl-].[Cl-].[Cl-].[Cl-].[Cl-].[O-2].[O-2].[Ru+3].[Ru+3].[Ru+4]", -0.5896),
    ("COc1cc(C(O)C(=O)O)ccc1O (racemic) [(±)-Vanillylmandelic acid]", -0.4708),
    ("COc1ccc(CNC(=O)/C=C/c2ccc3[nH]cc(CCN(C)C)c3c2)cc1", -0.6103),
]

Your task in this section: give Z-score for each listed record.
1. CC(C)NCC(O)c1ccc(O)c(O)c1.Cl (single isomer, unassigned; (-)) [(-)-Isoproterenol hydrochloride]
2. CCN1CCC[C@H]1CNC(=O)c1c(OC)ccc(I)c1O [S(-)-IBZM]
3. CCCCCCCCCCCCCCCCCCNC(=O)OCC(COP(=O)([O-])OCC[n+]1ccsc1)OC (stereo not drawn)

1. -0.5804
2. -0.5497
3. -0.6452
